The values you see were collected from ChEMBL document CHEMBL1140686.

Recorded measurements of EC50, one per entry
Molecular target: Peroxisome proliferator-activated receptor alpha (Homo sapiens)
Sequence (Q07869 whole entry): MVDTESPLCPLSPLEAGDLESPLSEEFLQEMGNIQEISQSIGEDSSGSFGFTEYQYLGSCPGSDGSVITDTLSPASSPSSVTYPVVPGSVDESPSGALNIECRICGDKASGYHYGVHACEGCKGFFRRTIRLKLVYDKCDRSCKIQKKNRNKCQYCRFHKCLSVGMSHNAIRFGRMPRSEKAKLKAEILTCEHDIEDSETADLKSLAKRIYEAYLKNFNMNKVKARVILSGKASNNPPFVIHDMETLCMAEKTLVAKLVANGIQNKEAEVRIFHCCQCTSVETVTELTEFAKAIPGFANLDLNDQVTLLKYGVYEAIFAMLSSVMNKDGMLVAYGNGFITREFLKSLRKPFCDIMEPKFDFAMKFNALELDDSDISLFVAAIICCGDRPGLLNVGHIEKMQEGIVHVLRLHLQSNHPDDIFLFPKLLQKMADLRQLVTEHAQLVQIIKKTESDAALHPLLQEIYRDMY
Assay: Agonist activity at PPARalpha by FRET assay
Form entry: value (µM) — number only.

Completed entries (count: 5):
Cc1cccc(-c2nc(CCOc3ccc4c(c3)CC[C@H]4CC(=O)O)c(C)o2)c1; 1.15
COc1ccc(-c2nc(CCOc3ccc4c(c3)CC[C@H]4CC(=O)O)c(C)o2)cc1; 0.798
Cc1sc(-c2cccc(C(F)(F)F)c2)nc1CCOc1ccc2c(c1)CC[C@H]2CC(=O)O; 10
Cc1oc(-c2ccccc2)nc1CCOc1ccc2c(c1)CCC2C(C)C(=O)O (stereo not given); 0.22
Cc1ccc(-c2nc(CCOc3ccc4c(c3)CC[C@H]4CC(=O)O)c(C)s2)cc1; 0.594

# EC50 (compound: Cc1sc(-c2ccc(F)cc2)nc1CCOc1ccc2c(c1)CC[C@H]2CC(=O)O ) is 2.27

# EC50 (compound: CCc1ccc(-c2nc(CCOc3ccc4c(c3)CC[C@H]4CC(=O)O)c(C)n2C)cc1 ) is 10

# EC50 (compound: Cc1oc(-c2ccccc2)nc1CCOc1ccc2c(c1)OCC2CC(=O)O (stereo not given) ) is 10

# EC50 (compound: Cc1oc(-c2cccc(Cl)c2)nc1CCOc1ccc2c(c1)CC[C@H]2CC(=O)O ) is 1.57

# EC50 (compound: Cc1sc(-c2ccc(-c3ccccc3)cc2)nc1CCOc1ccc2c(c1)CC[C@H]2CC(=O)O ) is 10

# EC50 (compound: Cc1sc(-c2ccc3c(c2)OCO3)nc1CCOc1ccc2c(c1)CC[C@H]2CC(=O)O ) is 1.21

# EC50 (compound: Cc1oc(-c2ccccc2)nc1CCOc1ccc2c(c1)CC[C@H]2CC(=O)O ) is 2.46

# EC50 (compound: Cc1sc(-c2ccc(OC(F)(F)F)cc2)nc1CCOc1ccc2c(c1)CC[C@H]2CC(=O)O ) is 7.94

# EC50 (compound: CCOc1ccc(-c2nc(CCOc3ccc4c(c3)CC[C@H]4CC(=O)O)c(C)s2)cc1 ) is 10

# EC50 (compound: COc1ccc(-c2nc(CCOc3ccc4c(c3)CC[C@H]4CC(=O)O)c(C)s2)cc1 ) is 3.28

# EC50 (compound: O=C(O)C[C@@H]1CCc2cc(OCCc3nc(-c4ccccc4)oc3CCc3ccccc3)ccc21 ) is 10

# EC50 (compound: Cc1oc(-c2ccccc2)nc1CCOc1ccc2c(c1)CCC[C@H]2CC(=O)O ) is 2.19

# EC50 (compound: Cc1oc(-c2ccc(C(C)C)cc2)nc1CCOc1ccc2c(c1)CC[C@H]2CC(=O)O ) is 0.3

# EC50 (compound: Cc1oc(-c2cccc(C#N)c2)nc1CCOc1ccc2c(c1)CC[C@H]2CC(=O)O ) is 10

# EC50 (compound: Cc1oc(-c2ccc(C#N)cc2)nc1CCOc1ccc2c(c1)CC[C@H]2CC(=O)O ) is 9.98

# EC50 (compound: CCc1ccc(-c2nc(CCOc3ccc4c(c3)CC[C@H]4CC(=O)O)c(CC)o2)cc1 ) is 2.53
